System: Klebsiella pneumoniae
Assay: Serial dilution-tube method, MIC
Format: cell-based
Conditions: Klebsiella pneumoniae; brain heart infusion broth; read-out: Minimum Inhibitory Concentration
ENDPOINT_NAME: MIC

[in] Dear colleague, I am looking for the recorded MIC of the following compound: CCN1CCN(C(=O)N[C@@H](C(=O)NC2C(=O)N3C(C(=O)OCOC(=O)C(C)(C)C)C(C)C(O)C23)c2ccccc2)C(=O)C1=O (stereo partly drawn)
[out] 12.5 µg/mL

[in] Dear colleague, I am looking for the recorded MIC of the following compound: CCN1CCN(C(=O)N[C@@H](C(=O)NC2C(=O)N3C(C(=O)OCOC(=O)C(C)(C)C)C(C)C(=O)C23)c2ccccc2)C(=O)C1=O (stereo partly drawn)
[out] 100 µg/mL

[in] Dear colleague, I am looking for the recorded MIC of the following compound: COC1(NC(=O)COc2ccccc2)C(=O)N2C(C(=O)OCOC(=O)C(C)(C)C)C(C)C(O)C21 (stereo not drawn)
[out] > 200 µg/mL

[in] Dear colleague, I am looking for the recorded MIC of the following compound: Cc1onc(-c2ccccc2)c1C(=O)NC1C(=O)N2C(C(=O)OCOC(=O)C(C)(C)C)C(C)C(O)C12 (stereo not drawn)
[out] > 200 µg/mL

[in] Dear colleague, I am looking for the recorded MIC of the following compound: CCN1CCN(C(=O)N[C@@H](C(=O)NC2C(=O)N3C(C(=O)O)C(C)C(O)C23)c2ccccc2)C(=O)C1=O (stereo partly drawn)
[out] > 200 µg/mL

[in] Dear colleague, I am looking for the recorded MIC of the following compound: CC1=C(C(=O)OCOC(=O)C(C)(C)C)N2C(=O)CC2C1=O (stereo not drawn)
[out] > 200 µg/mL
